Taken from patent US6511966B2.

Test system: SH-SY5Y human neuroblastoma cells
Assay: DCFC assay for inhibition of ROS production, cell-based aspect
Conditions: SH-SY5Y cells pre-loaded with DCFC-DA; ferric chloride/ascorbate induced free radical formation; fluorescence change over 30 minutes; read-out: IC50 Cell-Based (Inhibition of ROS, DCFC assay)
endpoint-label: IC50 (nM)
Numbers only, in nM.

Looking for the measured IC50 of CCOc1ccc2c(c1)C(C)=CC(C)(C)N2 [(III-4)] , can you help?
20
